Molecular target: T1, human glycophorin A on human red blood cells or red blood cell membranes (human, UniProt P02724 20-150)
T1 construct: whole, on cells; also called hRBC; human RBC membranes
T1 sequence (looked up): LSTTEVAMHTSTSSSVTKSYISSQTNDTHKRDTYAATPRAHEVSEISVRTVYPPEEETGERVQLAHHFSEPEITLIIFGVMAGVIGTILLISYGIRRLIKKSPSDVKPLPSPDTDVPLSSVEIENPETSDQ
Assay: scFv on intact human RBC, unbound scFv by ELISA; 60 min after 200-fold dilution
percentage of input scFv antibody bound for assorted binders
Give just the numeric value; % need not be written.

binder | u | quantitativeResult
TPP-7790 scFv with C-terminal 6xHIS tag (scFv) scFv: DIQLTQSPSFLSASVGDRVTITCRASSSVRYIYWFQQKPGKAPKLLIYATSFLQSGVPSRFSGSGSGTEYTLTISSLQPEDFATYYCHQRNSFPYTFGQGTKLEIKGGGGSGGGGSGGGGSGGGGSEVQLVQSGAEVKKPGASVKVSCKASGYTFTTYAIHWVRQAPGQGLEWMGYINPSSGYTRYNPKFKHRVTMTRDKSTSTAYMELRSLRSDDTAVYYCWTGTRDYWGQGTTVTVSSHHHHHH | % | 94

Q: Tell us which percentage of input scFv antibody bound value is on record for TPP-7783 scFv with C-terminal 6xHIS tag (scFv) scFv: DIQLTQSPSFLSASVGDRVTITCRASSSVRYIYWFQQKPGKAPKLLIYATSFRRSGVPSRFSGSGSGTEYTLTISSLQPEDFATYYCHQRNSFPYTFGQGTKLEIKGGGGSGGGGSGGGGSGGGGSEVQLVQSGAEVKKPGASVKVSCKASGYTFTTYAIHWVRQAPGQGLEWMGYINPSSGYTRYNPKFKHRVTMTRDKSTSTAYMELRSLRSDDTAVYYCWTGTRDYWGQGTTVTVSSHHHHHH
A: 94

Q: Tell us which percentage of input scFv antibody bound value is on record for TPP-7792 scFv with C-terminal 6xHIS tag (scFv) scFv: DIQLTQSPSFLSASVGDRVTITCRASSSVRYIYWFQQKPGKAPKLLIYATSFRQSGVPSRFSGSGSGTEYTLTISSLQPEDFATYYCHQRNSFPYTFGQGTKLEIKGGGGSGGGGSGGGGSGGGGSEVQLVQSGAEVKKPGASVKVSCKASGYTFTTYAIHWVRQAPGQGLEWMGYINPSSGYTRYNPKFKGRVTMTRDKSTSTAYMELRSLRSDDTAVYYCWTGTRDYWGQGTTVTVSSHHHHHH
A: 95

Q: Tell us which percentage of input scFv antibody bound value is on record for TPP-7778 scFv with C-terminal 6xHIS tag (scFv) scFv: DIQLTQSPSFLSASVGDRVTITCRASSSVRYIYWFQQKPGKAPKLLIYATSTLQSGVPSRFSGSGSGTEYTLTISSLQPEDFATYYCHQRNSFPYTFGQGTKLEIKGGGGSGGGGSGGGGSGGGGSEVQLVQSGAEVKKPGASVKVSCKASGYTFTTYAIHWVRQAPGQGLEWMGYINPSSGYTRYNPKFKHRVTMTRDKSTSTAYMELRSLRSDDTAVYYCQTGTRDYWGQGTTVTVSSHHHHHH
A: 79

Q: Tell us which percentage of input scFv antibody bound value is on record for TPP-7781 scFv with C-terminal 6xHIS tag (scFv) scFv: DIQLTQSPSFLSASVGDRVTITCRASSSVRYIYWFQQKPGKAPKLLIYATSTLQSGVPSRFSGSGSGTEYTLTISSLQPEDFATYYCHQRNSFPYTFGQGTKLEIKGGGGSGGGGSGGGGSGGGGSEVQLVQSGAEVKKPGASVKVSCKASGYTFTTYTIHWVRQAPGQGLEWMGYINPKSGWTRYNPKFKGRVTMTRDKSTSTAYMELRSLRSDDTAVYYCQTGTRDYWGQGTTVTVSSHHHHHH
A: 93

Reference source for all entries: patent US20190359687A1
